Give measured DC50 for each item. Keep answers brief.
Target: PTPN2 (Homo sapiens, UniProt P17706)
Construct: expressed in transfected cells; host or cells: 293T.109 (HiBiT-PTPN2), derived from 293T WT (ATCC)
Sequence (P17706 whole entry): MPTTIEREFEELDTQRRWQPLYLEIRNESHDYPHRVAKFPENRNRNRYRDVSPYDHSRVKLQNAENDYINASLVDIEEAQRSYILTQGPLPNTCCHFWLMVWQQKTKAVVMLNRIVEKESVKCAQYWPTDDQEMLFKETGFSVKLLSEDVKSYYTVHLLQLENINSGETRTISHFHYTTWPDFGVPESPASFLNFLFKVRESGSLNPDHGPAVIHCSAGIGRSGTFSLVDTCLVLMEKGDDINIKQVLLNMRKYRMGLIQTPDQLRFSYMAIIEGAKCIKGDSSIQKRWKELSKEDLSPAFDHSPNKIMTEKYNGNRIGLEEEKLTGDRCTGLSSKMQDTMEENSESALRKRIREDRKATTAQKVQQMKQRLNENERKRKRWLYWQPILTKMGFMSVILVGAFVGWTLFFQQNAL
Test: HiBiT PTPN2 degradation in 293T.109 (HiBiT-PTPN2) cells, 24 hours
Format: cell-based
Conditions: 293T.109 cells

Which DC50 is reported for this molecule? Cn1c(=O)n(C2CCC(=O)NC2=O)c2ccc(N3CC4(CC(OCC(=O)Nc5ccc6c(F)c(N7CC(=O)NS7(=O)=O)c(O)cc6c5)C4)C3)cc21 (centres unmarked) [Degrader 96]
50 to 150 nM

Here is the next molecule: Cn1c(=O)n(C2CCC(=O)NC2=O)c2ccc(N3CCC(CC4CC4C(=O)Nc4ccc5c(F)c(N6CC(=O)NS6(=O)=O)c(O)cc5c4)CC3)cc21 (centres unmarked) [Degrader 68]
50 to 150 nM

Here is the next molecule: Cn1c(=O)n(C2CCC(=O)NC2=O)c2ccc(C3CCN(CCNC(=O)c4ccc5c(F)c(N6CC(=O)NS6(=O)=O)c(O)cc5c4)CC3(F)F)cc21 (centres unmarked) [Degrader 59]
150 to 500 nM

Here is the next molecule: Cn1c(=O)n(C2CCC(=O)NC2=O)c2cnc(-c3ccc(CC(=O)Nc4ccc5c(F)c(N6CC(=O)NS6(=O)=O)c(O)cc5c4)cc3)cc21 (centres unmarked) [Degrader 122]
≥ 500 nM

Here is the next molecule: C[C@H](C(=O)Nc1ccc2c(F)c(N3CC(=O)NS3(=O)=O)c(O)cc2c1)C1CCN(c2ccc3c(c2)n(C)c(=O)n3C2CCC(=O)NC2=O)CC1 (some centres unmarked) [Degrader 105]
150 to 500 nM

Here is the next molecule: C[C@H]1CN(c2ccc3c(c2)n(C)c(=O)n3C2CCC(=O)NC2=O)CC[C@H]1CC(=O)Nc1ccc2c(F)c(N3CC(=O)NS3(=O)=O)c(O)cc2c1 (some centres unmarked) [Degrader 126]
50 to 150 nM

Here is the next molecule: Cn1c(=O)n(C2CCC(=O)NC2=O)c2ccc(Nc3ccn(CC(=O)Nc4ccc5c(F)c(N6CC(=O)NS6(=O)=O)c(O)cc5c4)n3)cc21 (centres unmarked) [Degrader 107]
50 to 150 nM

Here is the next molecule: Cn1c(=O)n(C2CCC(=O)NC2=O)c2ccc([C@@H]3CCN(CC(=O)N4CC(Oc5ccc6cc(O)c(N7CC(=O)NS7(=O)=O)c(F)c6c5)C4)C3)cc21 (some centres unmarked) [Degrader 16]
150 to 500 nM

Here is the next molecule: Cn1c(=O)n(C2CCC(=O)NC2=O)c2ccc([C@H]3CCN(CC(=O)Nc4ccc5c(F)c(N6CC(=O)NS6(=O)=O)c(O)cc5c4)C[C@@H]3F)cc21 (some centres unmarked) [Degrader 37]
50 to 150 nM

Here is the next molecule: Cn1c(=O)n(C2CCC(=O)NC2=O)c2ccc(C3CCN(CC(=O)Nc4ccc5c(F)c(N6CC(=O)NS6(=O)=O)c(O)cc5c4)CC3=O)cc21 (centres unmarked) [Degrader 113]
50 to 150 nM

Here is the next molecule: O=C1CCC(N2CCc3cc(C4CCN(CC(=O)N5CCC(c6ccc7cc(O)c(N8CC(=O)NS8(=O)=O)c(F)c7c6)CC5)CC4)ccc32)C(=O)N1 (centres unmarked) [Degrader 154]
150 to 500 nM

Here is the next molecule: Cn1c(=O)n(C2CCC(=O)NC2=O)c2ccc(-c3ccc(CC(=O)Nc4ccc5c(F)c(N6CC(=O)NS6(=O)=O)c(O)cc5c4)c(F)c3)cc21 (centres unmarked) [Degrader 33]
50 to 150 nM

Here is the next molecule: CCn1c(=O)n(C2CCC(=O)NC2=O)c2ccc([C@@H]3CCN(CC(=O)Nc4ccc5c(F)c(N6CC(=O)NS6(=O)=O)c(O)cc5c4)C[C@H]3F)cc21 (some centres unmarked) [Degrader 131]
150 to 500 nM

Here is the next molecule: Cn1c(=O)n(C2CCC(=O)NC2=O)c2cc(F)c(N3CCC(CC(=O)Nc4ccc5c(F)c(N6CC(=O)NS6(=O)=O)c(O)cc5c4)CC3)cc21 (centres unmarked) [Degrader 43]
< 50 nM

Here is the next molecule: C[C@H]1CC(c2ccc3c(c2)n(C)c(=O)n3C2CCC(=O)NC2=O)CCN1CC(=O)Nc1ccc2c(F)c(N3CC(=O)NS3(=O)=O)c(O)cc2c1 (some centres unmarked) [Degrader 121]
< 50 nM

Here is the next molecule: Cn1c(=O)n(C2CCC(=O)NC2=O)c2ccc(CC3CCN(C(=O)Nc4ccc5c(F)c(N6CC(=O)NS6(=O)=O)c(O)cc5c4)CC3)cc21 (centres unmarked) [Degrader 34]
≥ 500 nM

Here is the next molecule: C[C@@H]1CN(c2ccc3c(c2)n(C)c(=O)n3C2CCC(=O)NC2=O)CC[C@@H]1CC(=O)Nc1ccc2c(F)c(N3CC(=O)NS3(=O)=O)c(O)cc2c1 (some centres unmarked) [Degrader 127]
50 to 150 nM

Cited source for all entries: patent US20240424111A1
